Origin of values: PubChem BioAssay (NCATS)

assay: qHTS of pediatric cancer cell lines to identify multiple opportunities for drug repurposing: Primary screen for DAOY cells (AID 1347090); conditions: DAOY medulloblastoma viability, CellTiter-Glo luminescence, 48 h; series mostly up to 46 µM; also: nearly all actives have a fitted effect of over 55% in size
Records with an inconclusive call do not appear. Activity calls are given as the source filed them. Calls follow the shape of the dose curve; as a rule, active = well fitted cell-killing curve with a large enough effect; inconclusive = small, poorly fitted or top-dose-only effect; inactive = flat fitted curve, though single readings scatter.
Outcome codes: TRUE (active), FALSE (inactive)

1) Cc1ccccc1-n1c(Cn2nc(-c3cccc(O)c3)c3c(N)ncnc32)nc2cccc(C)c2c1=O; TRUE
2) CC1C(=O)OC2C(O)C34C5CC(C(C)(C)C)C36C(OC(=O)C6O)OC4(C(=O)O5)C12O (stereo not given); FALSE
3) CC(NCCc1ccc(O)cc1)C(O)c1ccc(O)cc1 (stereo not given); FALSE
4) CNC1CCC(N(Cc2cccc(-c3ccncc3)c2)C(=O)c2sc3ccccc3c2Cl)CC1 (stereo not given); FALSE
5) CON(C)C(=O)N1N=C(c2cc(F)ccc2F)S[C@]1(CCCN)c1ccccc1; TRUE
6) C=C[C@@H]1CN2CCC1C[C@@H]2C(O)c1ccnc2ccc(OC)cc12 (stereo not given in full); FALSE
7) COc1ccnc(CS(=O)c2nc3ccc(OC(F)F)cc3[nH]2)c1OC (stereo not given); FALSE
8) CCCC1OC2C[C@@H]3[C@H]4CCC5=CC(=O)C=C[C@]5(C)[C@H]4C(O)C[C@]3(C)[C@]2(C(=O)CO)O1 (stereo not given in full); FALSE
9) NC(=O)c1noc([C@H](CCCC2CCCCC2)CC(=O)NO)n1; TRUE
10) CCCCC(C)(C)[C@H](O)C=C[C@H]1[C@H](O)CC(=O)[C@H]1CC=CCCCC(=O)O; FALSE
